Experiment: Antiproliferative activity against human A549 cells after 48 hrs by SRB assay
Format: functional, cell-based
Conditions: A549, 48 h
pIC50: −log10 of the molar value.
# reported pIC50; entries follow

molecule	qualifying.sign	pIC50
O=C1C=C(OCc2ccccc2)C(=O)c2ccccc21	=	5.17
CCOC(=O)COC1=C(CC(=O)OCC)C(=O)c2ccccc2C1=O	=	4.68
COc1cc(COC2=CC(=O)c3ccccc3C2=O)cc(OC)c1OC	=	4.72
CCOC(=O)COC1=CC(=O)c2ccccc2C1=O	=	4.81
COc1cc([C@@H]2c3cc4c(cc3[C@@H](O[C@@H]3O[C@@H]5CO[C@@H](C)O[C@H]5[C@H](O)[C@H]3O)[C@H]3COC(=O)[C@H]23)OCO4)cc(OC)c1O [ETOPOSIDE]	<	4.52
